Assign CC50 to each entry below.
- assay_text: in vitro
- Format: cell-based
- measurement_parameters: African green monkey
Output spec: scalar in µM, unitless text.

Qu. CC50 lookup needed for OC(c1cc(C(F)(F)F)nc2c(C(F)(F)F)cccc12)C1CCCCN1 (centres unmarked) , thanks.
Ans. 9.2

Qu. CC50 lookup needed for `CCC(CC)COC(=O)[C@H](C)N[P@](=O)(OC[C@H]1O[C@@](C#N)(c2ccc3c(N)ncnn23)[C@H](O)[C@@H]1O)Oc1ccccc1` , thanks.
Ans. 512

---

- assay_text: in vitro
- Format: cell-based
- measurement_parameters: African green monkey; Vero E6, 72 h
measured_endpoint: CC50 at 72 h (µM)
Output spec: scalar in µM, unitless text.

Qu. CC50 at 72 h lookup needed for CCN(CC)CCCC(C)Nc1ccnc2cc(Cl)ccc12 (stereo not shown) , thanks.
Ans. 259
